The compounds listed here are annotated with their pIC50.
TEST TARGET: Human recombinant PTP-1B (Homo sapiens, UniProt P18031)
Construct: Human recombinant PTP-1B, containing amino acids 1-321, fused to GST enzyme; GST (glutathione S-transferase)
Sequence (P18031 1-321): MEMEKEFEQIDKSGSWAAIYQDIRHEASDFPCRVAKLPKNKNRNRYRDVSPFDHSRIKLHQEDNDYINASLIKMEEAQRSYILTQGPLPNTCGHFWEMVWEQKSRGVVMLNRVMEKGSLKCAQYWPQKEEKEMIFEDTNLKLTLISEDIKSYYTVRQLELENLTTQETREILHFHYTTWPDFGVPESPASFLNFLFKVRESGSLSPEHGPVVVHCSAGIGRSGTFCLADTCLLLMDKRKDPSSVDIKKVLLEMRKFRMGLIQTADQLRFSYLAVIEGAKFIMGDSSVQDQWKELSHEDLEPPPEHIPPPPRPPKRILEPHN
ASSAY TEXT: Assay for PTP-1B Activity (pNPP substrate)
Type: biochemical
TEST CONDITIONS: human recombinant PTP-1B (1-321) GST fusion, 2 mM pNPP, pH 7.4, 30° C., 20 min; read-out: Activity Code (IC50 range)
pIC50: −log10 of the molar value.

COMPOUND	RESULT
CC(C)(C)C(=O)OCOP(=O)(O)C(F)(F)c1ccc(Cn2c(-c3ccc(S(C)(=O)=O)cc3)cn(Cc3ccccc3)c2=O)cc1Br [Compound 76]	5.60 to 6.60

Task: Read off the recorded pIC50 for CC(C)OC(=O)OC(C)OP(=O)(O)C(F)(F)c1ccc(Cn2c(-c3ccc(S(C)(=O)=O)cc3)cn(Cc3ccccc3)c2=O)cc1Br (centres unmarked) [Compound 79]
Output: 6.60 to 7.00

Task: Read off the recorded pIC50 for CC(=O)Nc1cccc(Cn2cc(-c3ccc(S(C)(=O)=O)cc3)n(Cc3ccc(C(F)(F)P(=O)(O)O)c(Br)c3)c2=O)c1 [Compound 40]
Output: > 7.00

Task: Read off the recorded pIC50 for O=C(O)c1ccc(-c2cn(Cc3ccccc3)c(=O)n2Cc2ccc(C(F)(F)P(=O)(O)O)c(Br)c2)cc1 [Compound 2]
Output: 5.60 to 6.60

Task: Read off the recorded pIC50 for O=C(O)c1ccc(-c2cn(Cc3ccccc3)c(=O)n2Cc2ccc(C(F)(F)P(=O)(O)O)c(Cl)c2)cc1 [Compound 9]
Output: 5.60 to 6.60

Task: Read off the recorded pIC50 for Cn1cc(-c2ccc(C(=O)O)cc2)n(Cc2ccc(C(F)(F)P(=O)(O)O)c(Br)c2)c1=O [Compound 42]
Output: 5.60 to 6.60

Task: Read off the recorded pIC50 for O=c1[nH]ccn1Cc1ccc(C(F)(F)P(=O)(O)O)c(Br)c1 [Compound 87]
Output: 4.60 to 5.60

Task: Read off the recorded pIC50 for CC(C)OC(=O)OC(C)OP(=O)(O)C(F)(F)c1ccc(Cn2c(-c3ccc(S(C)(=O)=O)cc3)c[nH]c2=O)cc1Br (centres unmarked) [Compound 65]
Output: 4.60 to 5.60

Task: Read off the recorded pIC50 for COc1cc(Cn2cc(-c3ccc(C(=O)O)cc3)n(Cc3ccc(C(F)(F)P(=O)(O)O)c(Br)c3)c2=O)cc(OC)c1 [Compound 34]
Output: 5.60 to 6.60

Task: Read off the recorded pIC50 for COC(=O)c1ccc(Cn2ccn(Cc3ccc(C(F)(F)P(=O)(O)O)c(Br)c3)c2=O)cc1 [Compound 81]
Output: 5.60 to 6.60
